Hey, just so you know, these numbers are from paper PMC7105484.

Target system: T1, REF6 W1309A (Arabidopsis thaliana, UniProt Q9STM3 1223-1360, W1309A)
T1 sequence: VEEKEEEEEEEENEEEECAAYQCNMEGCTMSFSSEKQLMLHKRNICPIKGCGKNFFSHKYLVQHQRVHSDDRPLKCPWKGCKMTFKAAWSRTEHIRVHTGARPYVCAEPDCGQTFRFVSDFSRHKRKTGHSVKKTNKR
Method notes: MST; MST: 20 mM HEPES pH 7.3, 150 mM NaCl, 0.2 mM TCEP, 0.5% CA-630, 25 C; EMSA: 30 uM protein, 10 uM dsDNA, 20 mM Tris pH 8.0, 100 mM NaCl, 2.5 mM MgCl2, 0.1% CA-630, 10% glycerol, 1 uM ZnSO4, 1 mM DTT, 4 C
Conditions used: protein: recombinant; tags: His6-MBP or GST, TEV-cleavable; label: FAM in MST; none in crystal and EMSA; 5' overhang 1 nt on both strands, 15 bp
Measure name: pKd
Please treat pKd as minus the base-10 logarithm of the molar concentration.

Respond only with pKd recorded for NAC004 m5 (dsDNA) DNA 1: CTTTCTCTGTTTTGTC DNA 2: GGACAAAACAGAGAAA
4.23
